# IC50 per entry
Tested on: Phospho-Rb Ser807/811 in OVCAR3 cells
Experiment: OVCAR3 Phospho-Rb Ser807/811 HTRF assay
Type: cell-based
Settings: Homo sapiens, OVCAR-3, 1 h, OVCAR3 cells, Phospho-Rb Ser807/811 HTRF, 1 hour incubation; read-out: pRb-OVCAR3 IC50
Protocol: Cells were trypsinized and resuspended in 1 mM hydroxyurea (Sigma; H8627), 90% RPMI and 10% fetal bovine serum. […] Dose response curve normalized to DMSO control was plotted using four-parameter logistic model for IC50 calculation.
Please reply with the bare figure in nM and do not write the unit itself.

Lookup result for CC(C)NC(=O)O[C@@H]1CC[C@H](c2cc(NC(=O)COCc3cccc(O)c3C=O)n[nH]2)C1 [Compound 36, trifluoroacetic acid] ; measured IC50: 702

Lookup result for COc1cc(O)c(C=O)c(O[C@H](C)C(=O)Nc2cc([C@H]3C[C@@H](OC(=O)N4C5COCC4C5)C3)[nH]n2)c1 [Compound 193] ; measured IC50: 84.7

Please look at the following compound next.
Lookup result for COc1cc(O)c(C=O)c(OCC(=O)Nc2cc([C@H]3CC[C@@H](OC(=O)NC4(C#N)CCC4)C3)[nH]n2)c1 [Compound 148] ; measured IC50: 113

====

Biological target: CDK4-NanoLuc fusion with CCND1 in 293T or 293 cells (Homo sapiens, UniProt P11802)
Construct: host or cells: 293T (ATCC CRL-3216) or 293 (ATCC CRL-1573)
Sequence (P11802 whole entry, the tested form may be a part): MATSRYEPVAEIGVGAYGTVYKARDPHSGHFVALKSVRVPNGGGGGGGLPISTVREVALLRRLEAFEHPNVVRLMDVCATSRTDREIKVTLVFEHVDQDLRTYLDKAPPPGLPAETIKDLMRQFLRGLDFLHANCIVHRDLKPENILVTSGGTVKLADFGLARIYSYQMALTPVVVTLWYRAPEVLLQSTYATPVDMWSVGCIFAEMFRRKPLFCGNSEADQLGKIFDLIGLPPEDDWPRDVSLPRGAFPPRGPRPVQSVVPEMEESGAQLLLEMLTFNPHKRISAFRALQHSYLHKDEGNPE
Sequence (P24385 whole entry partner, the tested form may be a part): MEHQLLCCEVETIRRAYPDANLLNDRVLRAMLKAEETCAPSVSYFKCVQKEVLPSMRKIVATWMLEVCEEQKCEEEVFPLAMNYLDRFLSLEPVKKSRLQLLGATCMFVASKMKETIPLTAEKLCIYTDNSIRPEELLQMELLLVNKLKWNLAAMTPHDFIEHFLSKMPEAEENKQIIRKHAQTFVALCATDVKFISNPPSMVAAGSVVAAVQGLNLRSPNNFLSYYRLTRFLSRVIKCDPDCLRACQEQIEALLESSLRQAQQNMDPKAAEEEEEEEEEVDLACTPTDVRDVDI
Assay: NanoBRET Target Engagement (TE) Intracellular Kinase Assay, CDK4/CCND1
Assay type: cell-based
Settings: NanoBRET TE intracellular kinase assay, 2-hour incubation, read-out: NanoBRET-CDK4/D1 IC50
measurement.name: pIC50
Formally, pIC50 is defined as -log10 of the concentration c, with c in mol/L.

Lookup result for CC(C)NC(=O)O[C@@H]1CC[C@H](c2cc(NC(=O)CCc3cccc(O)c3C=O)n[nH]2)C1 ; measured pIC50: 5.73

More entries:
Lookup result for COc1cc(O)c(C=O)c([C@H]2C[C@@H]2C(=O)Nc2cc([C@H]3CC[C@@H](OC(=O)NC(C)C)C3)[nH]n2)c1 (single isomer, unassigned) ; measured pIC50: 5.29

Lookup result for CCc1cc(O)c(C=O)c(OCC(=O)Nc2cc([C@H]3CC[C@@H](OC(=O)NC4(C)CC4)C3)[nH]n2)c1 ; measured pIC50: 5.26

Lookup result for CC(C)NC(=O)O[C@@H]1CC[C@H](c2cc(NC(=O)c3cc(-c4c(F)ccc(O)c4C=O)nn3C)n[nH]2)C1 ; measured pIC50: 5.80

Lookup result for COCC(C)(C)NC(=O)O[C@@H]1CC[C@H](c2cc(NC(=O)COc3cc(OC)cc(O)c3C=O)n[nH]2)C1 ; measured pIC50: 5.47

Lookup result for COc1cc(O)c(C=O)c(OCC(=O)Nc2cc([C@H]3CC[C@@H](OC(=O)NC4(C(F)F)CC4)C3)[nH]n2)c1 ; measured pIC50: 5.97

Lookup result for COc1cc(O)c(C=O)c(OCC(=O)Nc2cc([C@H]3CC[C@@H](OC(=O)N4C5CC4CN(C)C5)C3)[nH]n2)c1 ; measured pIC50: 5.38

Lookup result for CC(C)NC(=O)O[C@@H]1CC[C@H](c2cc(NC(=O)c3ccc(C=O)c(O)c3)n[nH]2)C1 ; measured pIC50: 7.05

Lookup result for CC(C)NC(=O)O[C@@H]1CC[C@H](c2cc(NC(=O)OCCc3cccc(O)c3C=O)n[nH]2)C1 ; measured pIC50: 5.40

Lookup result for Cc1cc(O)c(C=O)c(O[C@@H](C)C(=O)Nc2cc([C@H]3CC[C@@H](OC(=O)NC(C)C)C3)[nH]n2)c1 ; measured pIC50: 5.39

====

# pIC50 per entry
Biological target: CDK2-NanoLuc fusion with CCNE1 in 293T or 293 cells (Homo sapiens, UniProt P24941)
Construct: host or cells: 293T (ATCC CRL-3216) or 293 (ATCC CRL-1573)
Assay: NanoBRET Target Engagement (TE) Intracellular Kinase Assay, CDK2/CCNE1
Assay type: cell-based
Conditions: NanoBRET TE intracellular kinase assay, 2-hour incubation, read-out: NanoBRET-CDK2/E1 IC50
Formally, pIC50 is defined as -log10 of the concentration c, with c in mol/L.

Lookup result for CC(C)NC(=O)O[C@@H]1CC[C@H](c2cc(NC(=O)c3cn(-c4cccc(O)c4C=O)nc3C(F)F)n[nH]2)C1 ; measured pIC50: 7.63

Lookup result for COc1cc(O)c(C=O)c(OCC(=O)Nc2cc([C@H]3CC[C@@H](OC(=O)N4CCOCC45CC5)C3)[nH]n2)c1 ; measured pIC50: 8.46

More entries:
Lookup result for CCN(C)NC(=O)O[C@@H]1CC[C@H](c2cc(NC(=O)COc3cc(OC)cc(O)c3C=O)n[nH]2)C1 ; measured pIC50: 8.50

Lookup result for COc1cccc(OCC(=O)Nc2cc([C@H]3CC[C@@H](OC(=O)NC(C)C)C3)[nH]n2)c1C=O ; measured pIC50: 8.90

Lookup result for COc1cc(O)c(C=O)c(-n2cc(CC(=O)Nc3cc([C@H]4CC[C@@H](OC(=O)NC(C)C)C4)[nH]n3)cn2)c1 ; measured pIC50: 7.85

Lookup result for COCC[C@H](C)NC(=O)O[C@@H]1CC[C@H](c2cc(NC(=O)COc3cc(OC)cc(O)c3C=O)n[nH]2)C1 ; measured pIC50: 8.50

Lookup result for CC(C)NC(=O)O[C@@H]1CC[C@H](c2cc(NC(=O)c3cc(COc4cccc(O)c4C=O)nn3C)n[nH]2)C1 ; measured pIC50: 8.28

Lookup result for COc1cc(O)c(C=O)c(OCC(=O)Nc2cc([C@H]3CC[C@@H](OC(=O)N4CCOCC4)C3)[nH]n2)c1 ; measured pIC50: 8.55

====

# pIC50 per entry
Biological target: CDK1-NanoLuc fusion with CCNB1 in 293T or 293 cells (Homo sapiens, UniProt P06493)
Construct: host or cells: 293T (ATCC CRL-3216) or 293 (ATCC CRL-1573)
Sequence (P06493 whole entry, the tested form may be a part): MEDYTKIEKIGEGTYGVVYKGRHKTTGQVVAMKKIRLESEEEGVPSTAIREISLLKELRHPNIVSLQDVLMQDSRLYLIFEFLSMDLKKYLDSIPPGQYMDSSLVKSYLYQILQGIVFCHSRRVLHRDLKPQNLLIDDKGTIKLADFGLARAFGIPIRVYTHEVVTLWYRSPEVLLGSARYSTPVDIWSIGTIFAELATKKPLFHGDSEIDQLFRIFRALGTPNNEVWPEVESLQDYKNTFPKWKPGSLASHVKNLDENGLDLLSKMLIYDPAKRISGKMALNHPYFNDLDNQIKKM
Sequence (P14635 whole entry partner, the tested form may be a part): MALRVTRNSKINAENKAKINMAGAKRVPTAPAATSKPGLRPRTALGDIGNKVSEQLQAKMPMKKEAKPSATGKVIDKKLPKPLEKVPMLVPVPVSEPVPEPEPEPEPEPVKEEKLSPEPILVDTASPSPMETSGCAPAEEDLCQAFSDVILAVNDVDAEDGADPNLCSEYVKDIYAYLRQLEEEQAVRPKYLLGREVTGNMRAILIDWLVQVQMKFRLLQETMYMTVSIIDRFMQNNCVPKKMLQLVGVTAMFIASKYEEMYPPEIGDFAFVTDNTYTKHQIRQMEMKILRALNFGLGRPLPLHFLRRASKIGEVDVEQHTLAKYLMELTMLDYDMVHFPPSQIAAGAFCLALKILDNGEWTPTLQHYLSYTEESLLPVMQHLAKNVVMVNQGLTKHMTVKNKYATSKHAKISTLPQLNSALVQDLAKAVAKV
Test: NanoBRET Target Engagement (TE) Intracellular Kinase Assay, CDK1/CCNB1
Assay type: cell-based
Conditions: NanoBRET TE intracellular kinase assay, 2-hour incubation, read-out: NanoBRET-CDK1/B1 IC50
Procedure: Inhibitory effects of compounds were measured in NanoBRET TE Intracellular Kinase Assay. 293T (ATCC; CRL-3216) or 293 (ATCC; CRL-1573) cell lines were maintained in 90% DMEM and 10% fetal bovine serum at 37° C., 5% CO2, and 95% relative humidity. […] NanoBRET signals (donor emission wavelength at 450 nm, acceptor emission wavelength at 610 nm) were measured using Envision plate reader (PerkinElmer). NanoBRET ratio was calculated by: BRET Ratio=raw signal for acceptor/raw signal for donor. […]
Formally, pIC50 is defined as -log10 of the concentration c, with c in mol/L.

Look over these answered cases.
Lookup result for CC(C)NC(=O)O[C@@H]1CC[C@H](c2cc(NC(=O)COc3cccc(O)c3C=O)n[nH]2)C1 ; measured pIC50: 7.76

Lookup result for COc1cc(O)c(C=O)c([C@H]2C[C@@H]2C(=O)Nc2cc([C@H]3CC[C@@H](OC(=O)NC(C)C)C3)[nH]n2)c1 (single isomer, unassigned) ; measured pIC50: 6.67

Please look at the following molecule next.
Lookup result for CC(C)NC(=O)O[C@@H]1CC[C@H](c2cc(NC(=O)COc3cccc(Cl)c3C=O)n[nH]2)C1 ; measured pIC50: 5.94

====

# pIC50 per entry
Target: CDK2-NanoLuc fusion with CCNE1 in 293T or 293 cells (Homo sapiens, UniProt P24941)
Construct: host or cells: 293T (ATCC CRL-3216) or 293 (ATCC CRL-1573)
Assay: NanoBRET Target Engagement (TE) Intracellular Kinase Assay, CDK2/CCNE1
Assay type: cell-based
Conditions: NanoBRET TE intracellular kinase assay, 2-hour incubation, read-out: NanoBRET-CDK2/E1 IC50
Protocol: Inhibitory effects of compounds were measured in NanoBRET TE Intracellular Kinase Assay. […] NanoBRET signals (donor emission wavelength at 450 nm, acceptor emission wavelength at 610 nm) were measured using Envision plate reader (PerkinElmer). NanoBRET ratio was calculated by: BRET Ratio=raw signal for acceptor/raw signal for donor. […]
Formally, pIC50 is defined as -log10 of the concentration c, with c in mol/L.

Lookup result for COc1cc(O)c(C=O)c2c1CC(C(=O)Nc1cc([C@H]3CC[C@@H](OC(=O)N4CCCN4C)C3)[nH]n1)C2 (single isomer, unassigned) [Compound 262] ; measured pIC50: 8.35

Lookup result for COc1cc(O)c(C=O)c(OCC(=O)Nc2cc([C@H]3CC[C@@H](OC(=O)NC[C@@H](C)OC)C3)[nH]n2)c1 ; measured pIC50: 8.25

Lookup result for COc1cc(O)c(C=O)c(OCC(=O)Nc2cc([C@H]3CC[C@@H](OC(=O)NC[C@H]4CCO4)C3)[nH]n2)c1 ; measured pIC50: 7.88
